Biological target: Leucine aminopeptidase (Plasmodium falciparum (isolate 3D7))
Experiment: P. falciparum M17LAP inhibitors, primary screen, biochemical, fluorogenic H-Leu-NHMec substrate, 1536-well (AID 1619);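 note: plate controls were full reaction with DMSO carrier for no effect and no enzyme background for full effect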
Conditions: recombinant M17LAP, H-Leu-NHMec fluorogenic kinetic assay; at 30 µM; stronger effect = higher value
Among all 220,000 compounds or so, about 830 (0.38%) were called active. These entries were drawn from the full list. Potency and affinity values are given separately.
OUTCOME MEASURE: inhibition (%)
Express it in %; write the number only.

COMPOUND	inhibition [%]
Cc1cc(C(=O)NCc2cccs2)n(-c2ccccc2)n1	-1.13

Fill blank: measured inhibition of the compound CC1=C(C#N)C(=O)NC(=O)/C1=C/c1ccc(-c2ccc(S(N)(=O)=O)cc2)o1 is ____.
35.6

Fill blank: measured inhibition of the compound NC(=O)CC(NC(=O)Cc1ccc(Br)cc1)c1ccc(NCc2ccc(F)c(F)c2)c([N+](=O)[O-])c1 (stereo unspecified) is ____.
-2.21

Fill blank: measured inhibition of the compound COc1ccc(C[C@H]2CN3C(=NC[C@@H]3C(C)C)N2C[C@H](C)NC(=O)c2ccc(C)c(Br)c2)cc1 is ____.
-1.28

Data origin: PubChem BioAssay AID1619
